# MEASURED TARGET: T1, biotinylated hBLyS-ECD (human, UniProt Q9Y275 134-285, biotinylated with Biotin-X-X-NHS (molar ratio 7:1); sites not stated)
# T1 construct: also called biotinylated immunogen; biotinylated hBLvS-ECD
# T1 sequence (Q9Y275 134-285): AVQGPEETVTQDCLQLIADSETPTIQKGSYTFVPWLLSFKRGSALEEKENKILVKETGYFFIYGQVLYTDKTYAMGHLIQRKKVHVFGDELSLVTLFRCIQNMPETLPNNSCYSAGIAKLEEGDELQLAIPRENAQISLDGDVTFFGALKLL
# TEST NAME: ELISA on captured biotinylated hBLyS-ECD; antibody 0.0213 nM
QUANTITY MEASURED: OD450 nm
Write the quantity with the unit trailing the number.

Task: Which OD450 nm is reported for this binder? c67A2E1D10 (antibody, V domains shown) VH: EVQLQQSGAELVKPGASVKLSCTASGFNIKNYYMHWVKQRTEEGLEWIGRIDPEDGETKYAPKFQAKATITADTSSNTAYLQLSSLTSEDTAVYFCARKGYYGNYGAWFAYWGQGTLVTVSA VL: DIQMTQSPASLSVSVGETVTITCRASEDLYSNLAWYQQKQGKSPQLLVYAATFLADGVPSRFSGSGSGTQYSLKINSLQSEDFGNYYCQHFWGTPPTFGGGTKLEIK
Result: 0.523 OD450 nm
